# tested-target: HLA-A*02:01 (Homo sapiens, UniProt P04439, D140Y/D185E/D98H/E176V/E277Q/G131W/G231S/I119V/I121R/I166T/I218V/L300P/L318F/N151K/N90K/P208A/P217A/Q86G/Q94H/R138H/R169H/T345S)
# run-description: MHC binding assay (UV-ligand exchange, beta2m ELISA)
# applied-conditions: binding to HLA-A*02:01, UV-ligand exchange
endpoint: Peptide exchange (MHC class I binding score, peptide exchange yield)

Would you please look over these solved cases?
244 (ILEPFLPAV; listed as Homo sapiens) [compound 244]    “+++” (≥50 = +++)
61 (SLLNKDLSL; listed as Homo sapiens) [compound 61]    “++++” (≥75% = ++++)
241 (FIPDFIPAV; listed as Homo sapiens) [compound 241]    “++” (≥20% = ++)
107 (VQAVSIPEV; listed as Homo sapiens) [compound 107]    “+++” (≥50 = +++)
205 (TLFYESPHL; listed as Homo sapiens) [compound 205]    “+++” (≥50 = +++)
53 (FLREYFERL; listed as Homo sapiens) [compound 53]    “++++” (≥75% = ++++)
153 (KLLKGIYAI; listed as Homo sapiens) [compound 153]    “+++” (≥50 = +++)
17 (VIIPLLSSV; listed as Homo sapiens) [compound 17]    “+++” (≥50 = +++)

Ask: Suppose we examine the substance 42 (YLQDLVERA; listed as Homo sapiens) [compound 42] ; what Peptide exchange (MHC class I binding score, peptide exchange yield) value has been reported?
Reply: “++++” (≥75% = ++++)

Ask: Okay, and 210 (FLAEQFEFL; listed as Homo sapiens) [compound 210] ?
Reply: “+++” (≥50 = +++)

Ask: Okay, and 194 (SLAPFDREPFTL; listed as Homo sapiens) [compound 194] ?
Reply: “++” (≥20% = ++)

Ask: Okay, and 295 (SLAAVSQQL; listed as Homo sapiens) [compound 295] ?
Reply: “+++” (≥50 = +++)

Ask: Okay, and 14 (LLSDPTPGA; listed as Homo sapiens) [compound 14] ?
Reply: “++” (≥20% = ++)

Ask: Okay, and 303 (FVWEASHYL; listed as Homo sapiens) [compound 303] ?
Reply: “++++” (≥75% = ++++)

----------
# tested-target: HLA-A*02:01 (Homo sapiens, UniProt P04439, D140Y/D185E/D98H/E176V/E277Q/G131W/G231S/I119V/I121R/I166T/I218V/L300P/L318F/N151K/N90K/P208A/P217A/Q86G/Q94H/R138H/R169H/T345S)
# run-description: MHC binding assay (UV-ligand exchange, beta2m ELISA)
# applied-conditions: binding to HLA-A*02:01, UV-ligand exchange
endpoint: Peptide exchange (MHC class I binding score, peptide exchange yield)

Would you please look over these solved cases?
28 (FLSNANPSL; listed as Homo sapiens) [compound 28]    “+++” (≥50 = +++)
265 (ILWHFVASL; listed as Homo sapiens) [compound 265]    “++++” (≥75% = ++++)
113 (FVIDSFEEL; listed as Homo sapiens) [compound 113]    “+++” (≥50 = +++)
200 (YLLDFEDRL; listed as Homo sapiens) [compound 200]    “++++” (≥75% = ++++)

Ask: Suppose we examine the substance 100 (RLIRTIAAI; listed as Homo sapiens) [compound 100] ; what Peptide exchange (MHC class I binding score, peptide exchange yield) value has been reported?
Reply: “+++” (≥50 = +++)

Ask: Okay, and 117 (VLATILAQL; listed as Homo sapiens) [compound 117] ?
Reply: “++++” (≥75% = ++++)

Ask: Okay, and 18 (KLTDQPPLV; listed as Homo sapiens) [compound 18] ?
Reply: “+++” (≥50 = +++)

----------
# tested-target: HLA-A*02:01 (Homo sapiens, UniProt P04439, D140Y/D185E/D98H/E176V/E277Q/G131W/G231S/I119V/I121R/I166T/I218V/L300P/L318F/N151K/N90K/P208A/P217A/Q86G/Q94H/R138H/R169H/T345S)
# run-description: MHC binding assay (UV-ligand exchange, beta2m ELISA)
# applied-conditions: binding to HLA-A*02:01, UV-ligand exchange
endpoint: Peptide exchange (MHC class I binding score, peptide exchange yield)

Would you please look over these solved cases?
263 (GLMDNEIKV; listed as Homo sapiens) [compound 263]    “+++” (≥50 = +++)
234 (NLQRTVVTV; listed as Homo sapiens) [compound 234]    “++” (≥20% = ++)
217 (AQFGAVLEV; listed as Homo sapiens) [compound 217]    “+++” (≥50 = +++)
209 (FLLDTISGL; listed as Homo sapiens) [compound 209]    “+++” (≥50 = +++)

Ask: Suppose we examine the substance 190 (GLIELVDQL; listed as Homo sapiens) [compound 190] ; what Peptide exchange (MHC class I binding score, peptide exchange yield) value has been reported?
Reply: “+++” (≥50 = +++)

Ask: Okay, and 179 (FVDTNLYFL; listed as Homo sapiens) [compound 179] ?
Reply: “+++” (≥50 = +++)

Ask: Okay, and 171 (TLLDVISAL; listed as Homo sapiens) [compound 171] ?
Reply: “++++” (≥75% = ++++)

Ask: Okay, and 197 (YLLTDNVVKL; listed as Homo sapiens) [compound 197] ?
Reply: “++” (≥20% = ++)

Ask: Okay, and 144 (GLITQVDKL; listed as Homo sapiens) [compound 144] ?
Reply: “+++” (≥50 = +++)

Ask: Okay, and 70 (VLIEILQKA; listed as Homo sapiens) [compound 70] ?
Reply: “++++” (≥75% = ++++)

----------
# tested-target: HLA-A*02:01 (Homo sapiens, UniProt P04439, D140Y/D185E/D98H/E176V/E277Q/G131W/G231S/I119V/I121R/I166T/I218V/L300P/L318F/N151K/N90K/P208A/P217A/Q86G/Q94H/R138H/R169H/T345S)
# run-description: MHC binding assay (UV-ligand exchange, beta2m ELISA)
# applied-conditions: binding to HLA-A*02:01, UV-ligand exchange
# Text: Candidate peptides for T cell based therapies according to the present invention were further tested for their MHC binding capacity (affinity). The individual peptide-MHC complexes were produced by UV-ligand exchange, where a UV-sensitive peptide is cleaved upon UV-irradiation, and exchanged with the peptide of interest as analyzed. Only peptide candidates that can effectively bind and stabilize the peptide-receptive MHC molecules prevent dissociation of the MHC complexes. […]
endpoint: Peptide exchange (MHC class I binding score, peptide exchange yield)

Would you please look over these solved cases?
156 (KMLEDDLKL; listed as Homo sapiens) [compound 156]    “+++” (≥50 = +++)
296 (FILEPLYKI; listed as Homo sapiens) [compound 296]    “++++” (≥75% = ++++)
262 (LMGPVVHEV; listed as Homo sapiens) [compound 262]    “++++” (≥75% = ++++)
49 (TILGDPQILL; listed as Homo sapiens) [compound 49]    “++++” (≥75% = ++++)
22 (ALKKHLTSV; listed as Homo sapiens) [compound 22]    “+++” (≥50 = +++)

Ask: Suppose we examine the substance 173 (VILDSVASV; listed as Homo sapiens) [compound 173] ; what Peptide exchange (MHC class I binding score, peptide exchange yield) value has been reported?
Reply: “++++” (≥75% = ++++)

Ask: Okay, and 287 (ILMGHSLYM; listed as Homo sapiens) [compound 287] ?
Reply: “++++” (≥75% = ++++)

Ask: Okay, and 3 (LTIDTQYYL; listed as Homo sapiens) [compound 3] ?
Reply: “+++” (≥50 = +++)

Ask: Okay, and 249 (VLLESLVEI; listed as Homo sapiens) [compound 249] ?
Reply: “++++” (≥75% = ++++)

----------
# tested-target: HLA-A*02:01 (Homo sapiens, UniProt P04439, D140Y/D185E/D98H/E176V/E277Q/G131W/G231S/I119V/I121R/I166T/I218V/L300P/L318F/N151K/N90K/P208A/P217A/Q86G/Q94H/R138H/R169H/T345S)
# run-description: MHC binding assay (UV-ligand exchange, beta2m ELISA)
# applied-conditions: binding to HLA-A*02:01, UV-ligand exchange
endpoint: Peptide exchange (MHC class I binding score, peptide exchange yield)

Would you please look over these solved cases?
182 (LLPPPPPVA; listed as Homo sapiens) [compound 182]    “++++” (≥75% = ++++)
138 (NLINNIFEL; listed as Homo sapiens) [compound 138]    “++++” (≥75% = ++++)
8 (ALYAVIEKA; listed as Homo sapiens) [compound 8]    “+++” (≥50 = +++)
208 (FLAVSLPLL; listed as Homo sapiens) [compound 208]    “+++” (≥50 = +++)

Ask: Suppose we examine the substance 309 (SLSFVSPSL; listed as Homo sapiens) [compound 309] ; what Peptide exchange (MHC class I binding score, peptide exchange yield) value has been reported?
Reply: “+++” (≥50 = +++)

Origin of the recorded values: patent US10702592B2
